TARGET DESC: Guanidinoacetate N-methyltransferase (Homo sapiens) (UniProt Q14353)
EXPERIMENTAL PROTOCOL: Confirmatory Screen for Target Class Profiling of Small Molecule Inhibitors of Methyltransferases (AID 1745852); further: on the % scale 0 is the no-effect control and ±100 the full control effect
COND: MTase-Glo luminescence, SAH detection, recombinant enzyme; at 57.3 µM (top of the series) unless noted
PARAMETER MEASURED: activity change, negative = inhibition (%)
Could you give me the number in %? Just the number is fine.

Quick note, activity change, negative = inhibition for `COc1ccc(-c2nnc3n(CCc4ccccc4)c(=O)c4ccccc4n23)c(OC)c1` landed at -5.05

Quick note, activity change, negative = inhibition for `O=C1c2ccccc2C(=O)c2cc(S(=O)(=O)NCCO)ccc21` landed at 0

Quick note, activity change, negative = inhibition for `CC(C)CCn1c(=O)c2ccccc2n2c(CCC(=O)N3CCN(c4ccccc4F)CC3)nnc12` landed at 0

---

TARGET DESC: Rap guanine nucleotide exchange factor 3 (Homo sapiens) (UniProt O95398)
Sequence (O95398 whole entry, looked up): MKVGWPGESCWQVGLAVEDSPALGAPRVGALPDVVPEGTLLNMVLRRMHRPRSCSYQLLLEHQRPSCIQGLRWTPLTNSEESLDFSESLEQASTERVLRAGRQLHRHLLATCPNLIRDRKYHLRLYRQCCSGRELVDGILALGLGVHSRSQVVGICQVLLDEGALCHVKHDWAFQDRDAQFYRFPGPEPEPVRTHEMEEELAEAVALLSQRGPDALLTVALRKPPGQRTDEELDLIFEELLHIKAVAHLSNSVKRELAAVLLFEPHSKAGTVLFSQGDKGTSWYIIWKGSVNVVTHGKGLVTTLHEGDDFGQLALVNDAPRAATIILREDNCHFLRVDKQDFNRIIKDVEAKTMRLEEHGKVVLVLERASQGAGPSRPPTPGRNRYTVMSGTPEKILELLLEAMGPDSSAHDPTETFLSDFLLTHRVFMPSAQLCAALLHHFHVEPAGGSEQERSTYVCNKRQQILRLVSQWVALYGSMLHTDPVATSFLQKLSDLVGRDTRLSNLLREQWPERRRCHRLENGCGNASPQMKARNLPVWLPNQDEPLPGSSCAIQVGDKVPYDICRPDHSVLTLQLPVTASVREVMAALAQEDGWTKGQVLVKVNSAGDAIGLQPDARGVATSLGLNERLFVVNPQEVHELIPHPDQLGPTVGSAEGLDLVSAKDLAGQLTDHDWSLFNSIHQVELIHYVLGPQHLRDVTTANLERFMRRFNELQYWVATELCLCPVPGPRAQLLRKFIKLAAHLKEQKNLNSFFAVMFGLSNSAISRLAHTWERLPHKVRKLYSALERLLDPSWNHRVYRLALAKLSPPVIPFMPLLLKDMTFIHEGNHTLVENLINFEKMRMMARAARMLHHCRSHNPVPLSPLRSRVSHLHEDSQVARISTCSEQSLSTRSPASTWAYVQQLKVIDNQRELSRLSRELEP
EXPERIMENTAL PROTOCOL: Confirmatory qHTS for antagonist of cAMP-regulated guanine nucleotide exchange factor 3 (EPAC1) (AID 1645880); further: nearly all actives have a fitted effect of over 55% in size; further: potency means the concentration at half of the fitted maximal effect
COND: EPAC1 Rap1B-BODIPY-GDP exchange, fluorescence
Inconclusive results are not listed. Activity calls are given as the source filed them. The call rests on the fitted dose curve; in most records, active means well fitted inhibition curve with a large enough effect; inconclusive means small, poorly fitted or top-dose-only effect; inactive means no such curve, though single readings can be large or run the other way.
PARAMETER MEASURED: Potency

Record excerpt, results attached:
>  <MOLECULE>
O=C1OC(c2ccccc2)(c2cc(Br)c(O)c(Br)c2)c2ccccc21 (configuration not stated)

>  <TARGET DESC>
Rap guanine nucleotide exchange factor 3 (Homo sapiens) (UniProt O95398)

>  <Potency>
84.9 µM (active)

$$$$
>  <MOLECULE>
COc1cc2c(cc1NC(=O)C(C)Oc1ccc(Cl)cc1Cl)oc1ccccc12 (configuration not stated)

>  <TARGET DESC>
Rap guanine nucleotide exchange factor 3 (Homo sapiens) (UniProt O95398)

>  <Potency>
inactive

$$$$
>  <MOLECULE>
Cc1ccc(C)c(-n2c(CCC(=O)O)ccc2-c2ccc(Cl)cc2)c1

>  <TARGET DESC>
Rap guanine nucleotide exchange factor 3 (Homo sapiens) (UniProt O95398)

>  <Potency>
inactive

$$$$
>  <MOLECULE>
Cc1cc2nc3c(=O)[nH]c(=O)[nH]c3nc2c([N+](=O)[O-])c1N

>  <TARGET DESC>
Rap guanine nucleotide exchange factor 3 (Homo sapiens) (UniProt O95398)

>  <Potency>
inactive

$$$$
>  <MOLECULE>
COCCN1C(=O)/C(=C/c2ccc(N3CCCC3)cc2)SC1=S

>  <TARGET DESC>
Rap guanine nucleotide exchange factor 3 (Homo sapiens) (UniProt O95398)

>  <Potency>
inactive

$$$$

Quick note, Potency for `COc1ccc(Br)cc1CN(C)CC(=O)Nc1c(Cl)cccc1Cl` landed at inactive

Quick note, Potency for `O=C(O)/C(CC(=O)c1ccc(Cl)cc1)=N/Nc1ccc([N+](=O)[O-])cc1[N+](=O)[O-]` landed at 75.7 µM (active)

Quick note, Potency for `Cc1ccc(SCc2nnc(N)s2)cc1` landed at inactive

Quick note, Potency for `COc1ccc(/C=N/Nc2ncnc3sc(C)c(C)c23)cc1` landed at inactive

Quick note, Potency for `O=C1c2cccc3c(O)ccc(c23)C(=O)N1Cc1ccccc1` landed at inactive

Quick note, Potency for `COc1ccc(C(C#N)=Cc2ccccc2OC)cc1` landed at inactive

Quick note, Potency for `COc1ccc(-n2ccn(Cc3ccc(C)cc3)c(=O)c2=O)cc1OC` landed at inactive

---

TARGET DESC: Rap guanine nucleotide exchange factor 4 (Homo sapiens)
EXPERIMENTAL PROTOCOL: Confirmatory qHTS for antagonist of cAMP-regulated guanine nucleotide exchange factor 4 (EPAC2) (AID 1645885); further: nearly all actives have a fitted effect of over 25% in size
COND: EPAC2 Rap1B-BODIPY-GDP exchange fluorescence, biochemical; series mostly up to 12.7 µM
Records with an inconclusive call do not appear. The source made the active and inactive calls. The call rests on the fitted dose curve; in most records, active means well fitted inhibition curve with a large enough effect; inconclusive means small, poorly fitted or top-dose-only effect; inactive means no such curve, though single readings can be large or run the other way.
The reply should be one of these categories: TRUE = active, FALSE = inactive

>  <COMPOUND>
COc1cc(NC(=O)CCNC(=O)Cn2ccc3ccccc3c2=O)cc(OC)c1OC

>  <TARGET DESC>
Rap guanine nucleotide exchange factor 4 (Homo sapiens)

>  <CLASSIFICATION>
FALSE

$$$$
>  <COMPOUND>
CC1(C)C=Cc2cc(-c3coc4cc(O)cc(O)c4c3=O)cc(O)c2O1

>  <TARGET DESC>
Rap guanine nucleotide exchange factor 4 (Homo sapiens)

>  <CLASSIFICATION>
FALSE

$$$$
>  <COMPOUND>
O=C(N/N=C/c1cccnc1)c1cc(-c2ccccc2OCc2ccccc2)n[nH]1

>  <TARGET DESC>
Rap guanine nucleotide exchange factor 4 (Homo sapiens)

>  <CLASSIFICATION>
FALSE

$$$$

Continue with the compound presented below.
Outcome? CCCC(=O)OC1CC(C)N(C(=O)c2ccccc2)c2ccc(C)cc21 (centres undefined) TRUE

---

TARGET DESC: Rap guanine nucleotide exchange factor 3 (Homo sapiens) (UniProt O95398)
EXPERIMENTAL PROTOCOL: Counterscreen qHTS for agonist of cAMP-regulated guanine nucleotide exchange factor 3 (EPAC1) (AID 1645889); further: % of control where 0% means no effect; nearly all actives have a fitted effect of over 40% in size
COND: EPAC1 Rap1B-BODIPY-GDP exchange, fluorescence; series mostly up to 154 µM
Inconclusive results are not listed. The source made the active and inactive calls. Calls follow the shape of the dose curve; as a rule, active = well fitted activation curve with a large enough effect; inconclusive = small, poorly fitted or top-dose-only effect, or another doubt; inactive = no such curve, though single readings can be large or run the other way.
PARAMETER MEASURED: activation

Record excerpt, results attached:
>  <COMPOUND>
CC(C)CNC(=O)C1(C)CCCCCN1Cc1ccccc1-c1ccccc1 (centres undefined)

>  <activation>
inactive

$$$$
>  <COMPOUND>
CC(=O)/C(C#N)=C1\NC(=O)C(Cc2cc(Cl)ccc2Cl)S1 (centres undefined)

>  <activation>
2.87% [at 30.8 µM] (inactive)

$$$$
>  <COMPOUND>
CCCC(=O)NC(c1ccc(C)cc1)c1ccc2cccnc2c1O (centres undefined)

>  <activation>
7.43% [at 30.8 µM] (inactive)

$$$$
>  <COMPOUND>
CCOC(=O)c1sc2nc(NC(=O)COc3ccccc3)sc2c1C

>  <activation>
25% [at 30.8 µM] (inactive)

$$$$
>  <COMPOUND>
CCn1cc(SCC(=O)NCc2ccc3c(c2)OCO3)c2ccccc21

>  <activation>
20.3% [at 30.8 µM] (inactive)

$$$$

Quick note, activation for `N#Cc1c(-c2ccccc2)c(C#N)c2nc3ccccc3n2c1N` landed at inactive

Quick note, activation for `Cc1ccc([C@H]2C(C(=O)O)=CC[C@@H](c3ccc(C(C)C)cc3)N2S(=O)(=O)c2ccc(C)cc2)cc1` landed at inactive

Quick note, activation for `N#C/C(=C\C1=C(N2CCOCC2)C(=C/c2cccc([N+](=O)[O-])c2)/CC1)C(=O)Nc1ccccc1F` landed at inactive

Quick note, activation for CCOC(=O)C1=C(C)N=c2s/c(=C/c3cccc([N+](=O)[O-])c3O)c(=O)n2C1c1ccccc1 (centres undefined) landed at inactive

---

EXPERIMENTAL PROTOCOL: Cell Viability - Mesenchymal (AID 546);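 further: cells exposed to compound for 40 hours before reading; 0% = DMSO only and -100% = 100 µM tamoxifen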
COND: mesenchymal cells viability, qHTS; at 91.7 µM (top of the series)
Records with an inconclusive call do not appear.
PARAMETER MEASURED: activity change, negative = cytotoxicity (%)
Could you give me the number in %? Just the number is fine.

Record excerpt, results attached:
>  <LINE NOTATION>
COc1ccc(/C=C/c2cc(OC)cc(=O)o2)cc1

>  <ENDPOINT RESULT>
-3.53

$$$$
>  <LINE NOTATION>
COc1c2ccoc2cc2oc(=O)ccc12

>  <ENDPOINT RESULT>
-14.2

$$$$
>  <LINE NOTATION>
Cc1ccc([N+](=O)[O-])cc1N

>  <ENDPOINT RESULT>
-1.39

$$$$
>  <LINE NOTATION>
CCO[Si](CCCN)(OCC)OCC

>  <ENDPOINT RESULT>
-8.88

$$$$
>  <LINE NOTATION>
O=C(O)c1ccccc1

>  <ENDPOINT RESULT>
4.89

$$$$

Quick note, activity change, negative = cytotoxicity for `c1ccc2c(c1)[nH]c1ccccc12` landed at -7.62

Quick note, activity change, negative = cytotoxicity for `COC(=O)c1ccc(C=O)cc1` landed at -7.99

Quick note, activity change, negative = cytotoxicity for `Cc1c(N=C=O)cccc1N=C=O` landed at -3.51

Quick note, activity change, negative = cytotoxicity for `Nc1ccc(S(=O)(=O)O)cc1` landed at 9.75

Quick note, activity change, negative = cytotoxicity for `c1ccc2c(c1)c1cccc3ccc4cccc2c4c31` landed at 2.17

Quick note, activity change, negative = cytotoxicity for `CC(=O)OC/C=C(\C)CCC=C(C)C` landed at 8.38

Quick note, activity change, negative = cytotoxicity for `CN(C)CCCCCCN(C)C` landed at 10.5

Quick note, activity change, negative = cytotoxicity for `ClCCCl` landed at 8.24

Quick note, activity change, negative = cytotoxicity for `O=[N+]([O-])c1cccc(Cl)c1Cl` landed at 4.81

Quick note, activity change, negative = cytotoxicity for `COC(=O)c1ccc(C)cc1` landed at -2.78
